Tested on: U2OS
Assay: Multiplex assay against U2OS
Format: toxicity, cell-based
Settings: human, 48 h, 10 µM, compound concentration 10 uM, replicate 2
Measured Population Membrane Permeable-Phenotype (%) of individual entries
Measurement Label: Population Membrane Permeable-Phenotype (%)

Structure String	Target Or System	Value Measured
O=C(O)c1ccc2cc(-c3ccc(O)c(C45CC6CC(CC(C6)C4)C5)c3)ccc2c1	U2OS	20
CCc1cc2c(cc1CC)CC(NC[C@H](O)c1ccc(O)c3[nH]c(=O)ccc13)C2	U2OS	49
COc1ccc(NS(=O)(=O)c2sc3ccc(Cl)cc3c2C)cc1N1CCNCC1.Cl	U2OS	56
Cl.Cl.Nc1ncnc2c1c(-c1cccc(OCc3ccccc3)c1)cn2[C@H]1C[C@@H](CN2CCC2)C1	U2OS	96

* * *

System: HEK-293T
Assay: Incucyte cell viability with HEK293T; also: filed as whole numbers so only -1 and 0 and 1 occur
Format: toxicity, cell-based
Conditions: human, 0 h, 10 µM, compound concentration 10 uM, replicate number 1, timepoint 0 hours

Molecule	Growth Rate
Oc1ccc(-c2nc3cc(O)cc(Br)c3o2)cc1	1
O=C(Nc1cccc2c(=O)cc(-c3nnn[nH]3)oc12)c1ccc(OCCCCc2ccccc2)cc1	1
COc1cccc(CNC(=O)c2nc3scc(CN(C)Cc4ccccc4)c3c(=O)[nH]2)c1 [T-26f]	0
CNc1nc(Nc2cnn([C@H]3CCN(C4COC4)C[C@@H]3F)c2Cl)ncc1C(F)(F)F	0
N#Cc1ccccc1OCC(O)CNCCNC(=O)Nc1ccccc1 (stereo not given) [ICI-89406]	1

* * *

Tested on: HEK-293T
Assay: Multiplex assay against HEK293T
Assay type: toxicity, cell-based
Settings: human, 24 h, 10 µM, compound concentration 10 uM, replicate 1

Compound	Unit Of Measure	Population Pyknosed Nuclei (%)
CN(C)CCOc1ccc(-c2nc(-c3ccncc3)c(-c3ccc4c(c3)CC/C4=N\O)[nH]2)cc1	%	5
Cc1nc(Cc2cccc(C(F)(F)F)c2)sc1-c1ccc(C(N)=O)nc1 [TP-024n]	%	57
N#Cc1cnc(Nc2cc(NC[C@H]3CNCCO3)c(C(F)(F)F)cn2)cn1	%	18
CCCn1c(=O)c2[nH]c(C34CC5CC(CC3C5)C4)nc2n(CCC)c1=O	%	54

* * *

Measured Total Cell Count of individual entries
System: U2OS
Experiment: Multiplex assay against U2OS
Type: toxicity, cell-based
Details: human, 24 h, 10 µM, compound concentration 10 uM, replicate 1
Measurement Label: Total Cell Count

Molecule	Value Measured
CCOc1cc2ncc(C#N)c(Nc3ccc(OCc4cccc(F)c4)c(Cl)c3)c2cc1NC(=O)/C=C/CN(C)C [HKI-357]	272
COc1cc2c(NC3CCN(C(C)C)CC3)nc(N3CCC(F)(F)CC3)nc2cc1OCCCN1CCCC1	218
CN(C)CCOc1ccc(-c2nc(-c3ccncc3)c(-c3ccc4c(c3)CC/C4=N\O)[nH]2)cc1 [SB590885]	144
Cl.Cl.Nc1ncnc2c1c(-c1cccc(OCc3ccccc3)c1)cn2[C@H]1C[C@@H](CN2CCC2)C1	157
CCCn1c(=O)c2[nH]c(C34CC5CC(CC3C5)C4)nc2n(CCC)c1=O [ROLOFYLLINE]	105
c1ccc2oc(-c3csc(C4CCN(Cc5nc6ncccc6[nH]5)CC4)n3)cc2c1	282
CC(C)(C)c1cnc(CSc2cnc(NC(=O)C3CCNCC3)s2)o1 [BMS-387032]	174

* * *

Tested on: HEK-293T
Assay: Multiplex assay against HEK293T
Format: toxicity, cell-based
Conditions: human, 48 h, 10 µM, compound concentration 10 uM, replicate 1
So basically, if Population Apoptotic (%) comes in under 80% it's Met, and if it's 80% or more it's Not met.

Compound	Category Label
Nc1nc2c(c(N3CCNCC3)n1)CCC1=C2[C@@H]2CCCC[C@@H]2O1	Met
C1=N/C2=N/c3ccc(OCCN4CCCC4)c(c3)COC/C=C\COCc3cccc(c3)C(=C1)N2	Not met
COc1cc2c(NC3CCN(C(C)C)CC3)nc(N3CCC(F)(F)CC3)nc2cc1OCCCN1CCCC1	Not met
CCc1cc2c(cc1CC)CC(NC[C@H](O)c1ccc(O)c3[nH]c(=O)ccc13)C2 [INDACATEROL]	Not met
CNc1oc(-c2cccc3ccccc23)nc1C#N	Met
COc1cc(N2CCC(N(C)C)CC2)ccc1Nc1ncc(Cl)c(Nc2ccccc2P(C)(C)=O)n1	Met
CC(C)Oc1ccc(C(=O)N[C@H](CNC(=O)CN(C)C)Cc2ccc(-c3cn4cccc([C@H](C)O)c4n3)cc2)cc1Cl [GSK-923295A]	Not met
CC(=O)c1cc(-c2cc(C(=O)NC3CC3)ccc2C)c2ncccn12	Met
Cc1cc2c(cc1N1C(=O)c3cccc4c(CCCO)ccc(c34)C1=O)n(C)c(=O)n2C	Met
CC(C)N1CCC(C)(C)c2cc(C#Cc3ccc(C(=O)O)cc3)ccc21	Met
Nc1ccc(C(=O)Nc2cccc(-c3nc(N4CCOCC4)c4oc5ncccc5c4n3)c2)cn1	Met
Cc1nc(Cc2cccc(C(F)(F)F)c2)sc1-c1ccc(C(N)=O)nc1 [TP-024n]	Met
CCC(=O)O[C@]1(C(=O)SCF)[C@H](C)C[C@H]2[C@@H]3C[C@H](F)C4=CC(=O)C=C[C@]4(C)[C@@]3(F)[C@@H](O)C[C@@]21C [FLUTICASONE PROPIONATE]	Met
Cl.Cl.Nc1ncnc2c1c(-c1cccc(OCc3ccccc3)c1)cn2[C@H]1C[C@@H](CN2CCC2)C1	Not met
O=C(O)c1ccc2cc(-c3ccc(O)c(C45CC6CC(CC(C6)C4)C5)c3)ccc2c1 [O-DEMETHYLATED ADAPALENE]	Met
CCCn1c(=O)c2[nH]c(C34CC5CC(CC3C5)C4)nc2n(CCC)c1=O [ROLOFYLLINE]	Met

* * *

Measured Population Healthy Nuclei (%) of individual entries
Test system: HEK-293T
Assay: Multiplex assay against HEK293T
Type: toxicity, cell-based
Details: human, 48 h, 1 µM, compound concentration 1 uM, replicate 2

Compound	Target Or System	Unit Of Measure	Population Healthy Nuclei (%)
O=C(O)c1ccc2cc(-c3ccc(O)c(C45CC6CC(CC(C6)C4)C5)c3)ccc2c1	HEK-293T	%	80
Cl.Cl.Nc1ncnc2c1c(-c1cccc(OCc3ccccc3)c1)cn2[C@H]1C[C@@H](CN2CCC2)C1	HEK-293T	%	71
CCC(=O)O[C@]1(C(=O)SCF)[C@H](C)C[C@H]2[C@@H]3C[C@H](F)C4=CC(=O)C=C[C@]4(C)[C@@]3(F)[C@@H](O)C[C@@]21C [FLUTICASONE PROPIONATE]	HEK-293T	%	81

* * *

System: Fibroblast
Test: Multiplex assay against human fibroblast
Assay type: toxicity, cell-based
Details: 24 h, 1 µM, compound concentration 1 uM, replicate 2
So basically, if Population Mitotic Cells (%) comes in under 70% it's met, and if it's 70% or more it's not met.

Compound	Category Label
Nc1ccc(C(=O)Nc2cccc(-c3nc(N4CCOCC4)c4oc5ncccc5c4n3)c2)cn1	not met
N#Cc1cnc(Nc2cc(NC[C@H]3CNCCO3)c(C(F)(F)F)cn2)cn1 [SRA-737]	met
CC(=O)c1cc(-c2cc(C(=O)NC3CC3)ccc2C)c2ncccn12	not met
CN(C)CCOc1ccc(-c2nc(-c3ccncc3)c(-c3ccc4c(c3)CC/C4=N\O)[nH]2)cc1 [SB590885]	met
COc1cc(N2CCC(N(C)C)CC2)ccc1Nc1ncc(Cl)c(Nc2ccccc2P(C)(C)=O)n1	met

* * *

Measured Population Membrane Permeable-Phenotype (%) of individual entries
System: Fibroblast
Test: Multiplex assay against human fibroblast
Assay type: toxicity, cell-based
Conditions: 24 h, 10 µM, compound concentration 10 uM, replicate 1
Measurement Label: Population Membrane Permeable-Phenotype (%)

Molecule	Value Measured
Cl.Cl.Nc1ncnc2c1c(-c1cccc(OCc3ccccc3)c1)cn2[C@H]1C[C@@H](CN2CCC2)C1	5%
COc1ccc(NS(=O)(=O)c2sc3ccc(Cl)cc3c2C)cc1N1CCNCC1.Cl	9%
COc1cc2c(Nc3ccc(NC(=O)c4ccccc4)cc3)ncnc2cc1OCCCN1CCOCC1	6%
CC(C)(C)c1cnc(CSc2cnc(NC(=O)C3CCNCC3)s2)o1	4%
CN(C)C/C=C/C(=O)Nc1cc2c(Nc3ccc(F)c(Cl)c3)ncnc2cc1O[C@H]1CCOC1.O=C(O)/C=C\C(=O)O.O=C(O)/C=C\C(=O)O [AFATINIB DIMALEATE]	19%
COc1cc2c(NC3CCN(C(C)C)CC3)nc(N3CCC(F)(F)CC3)nc2cc1OCCCN1CCCC1	4%
O=C(O)c1ccc2c(c1)nc(Nc1cccc(Cl)c1)c1ccncc12	5%
c1ccc2oc(-c3csc(C4CCN(Cc5nc6ncccc6[nH]5)CC4)n3)cc2c1	2%
CC(=O)c1cc(-c2cc(C(=O)NC3CC3)ccc2C)c2ncccn12	24%
CCn1c(-c2nonc2N)nc2cnc(Oc3cccc(NC(=O)c4ccc(OCCN5CCOCC5)cc4)c3)cc21 [GSK-269962A]	11%
Nc1nc2c(c(N3CCNCC3)n1)CCC1=C2[C@@H]2CCCC[C@@H]2O1	12%
CCOc1cc2ncc(C#N)c(Nc3ccc(OCc4cccc(F)c4)c(Cl)c3)c2cc1NC(=O)/C=C/CN(C)C	5%
CNc1oc(-c2cccc3ccccc23)nc1C#N	1%
Cc1cc2c(cc1N1C(=O)c3cccc4c(CCCO)ccc(c34)C1=O)n(C)c(=O)n2C	13%
CCC(=O)O[C@]1(C(=O)SCF)[C@H](C)C[C@H]2[C@@H]3C[C@H](F)C4=CC(=O)C=C[C@]4(C)[C@@]3(F)[C@@H](O)C[C@@]21C [FLUTICASONE PROPIONATE]	40%
Cc1cn(-c2cc(NC(=O)c3ccc4c(c3)CN(c3cncnc3)C[C@@H]4C)cc(C(F)(F)F)c2)cn1	3%
Cc1nc(Cc2cccc(C(F)(F)F)c2)sc1-c1ccc(C(N)=O)nc1 [TP-024n]	5%
CCCn1c(=O)c2[nH]c(C34CC5CC(CC3C5)C4)nc2n(CCC)c1=O	31%
Cl.Cl.NC1(c2ccc(-c3nc4ccn5c(=O)[nH]nc5c4cc3-c3ccccc3)cc2)CCC1	5%
O=C(O)c1ccc2cc(-c3ccc(O)c(C45CC6CC(CC(C6)C4)C5)c3)ccc2c1	55%
CCc1cc2c(cc1CC)CC(NC[C@H](O)c1ccc(O)c3[nH]c(=O)ccc13)C2	5%
CN(C)CCOc1ccc(-c2nc(-c3ccncc3)c(-c3ccc4c(c3)CC/C4=N\O)[nH]2)cc1	6%
N#Cc1cnc(Nc2cc(NC[C@H]3CNCCO3)c(C(F)(F)F)cn2)cn1	9%
CC(C)N1CCC(C)(C)c2cc(C#Cc3ccc(C(=O)O)cc3)ccc21	33%
CNC(=O)c1cc(Oc2ccc(NC(=O)Nc3cc(C(C)(C)C)nn3-c3ccc4ncccc4c3)c(F)c2)ccn1	4%
CCOc1cc(N2CCC(O)CC2)ccc1Nc1ncc2c(n1)N(C1CCCC1)CCC(=O)N2C	5%

Recorded values, source ChEMBL document CHEMBL4689842.
